- procedure.text: osmotic lysis modulators in infected erythrocytes, primary screen, PSAC antagonist project, cell-based, P. falciparum Indochina, OD700, 3 h (AID 1156)
- reported.conditions: higher = more signal, called active from +8 up or from −8 down
Please provide measured z-score for the entries that follow.
Enter the number alone.

-- ask Entry C=CCC(OC(C)=O)[C@@H]1[C@@H](N(Cc2cccc3ccccc23)C(=O)c2cccc3ccccc23)c2cc(OCCCO)ccc2N1C(=O)Cc1ccc2ccccc2c1 (some centres not stated) needs its z-score filled in; supply it.
-- reply 1.02

-- ask For the compound COc1ccc([Si](C)(C)[C@H]2[C@H](CCO)O[C@@]3(C(=O)N(Cc4ccc(N5CCOC5=O)cc4)c4ccccc43)[C@@H]2C)cc1 , report z-score.
-- reply 1.63

-- ask Please give measured z-score of the following entry: [N-]=[N+]=NCc1ccccc1[C@H]1OC(c2ccc(OCCCO)cc2)=N[C@@]1(Cc1ccccc1)C(=O)N1CCOCC1
-- reply 2.96

-- ask Specify measured z-score for C=C(COC)C(=O)CC[C@@H](OC(=O)c1cccnc1)c1cccc(OCCO)c1 .
-- reply 1.21

-- ask Provide only the value of recorded z-score for O=C1N(CCS(=O)(=O)c2ccccc2)c2ccccc2[C@@H]2OC(c3ccc(OCCCO)cc3)=N[C@]12CCS(=O)(=O)c1ccccc1
-- reply 1.18

-- ask Item CCOC(=O)C1=C[C@@H](C(C)(C)C)N(S(=O)(=O)c2ccc(C)cc2)[C@H]1c1ccccc1Cl : provide z-score
-- reply -0.775

-- ask Report measured z-score; entry is COCCOC(=O)N1C(=O)[C@@]2(c3cc(C#CCCO)ccc31)[C@H](c1ccccc1OCCO)N1[C@H](c3ccccc3)[C@H](c3ccccc3)OC(=O)[C@H]1[C@@H]2C(=O)N1CCc2cc(OC)c(OC)cc2C1
-- reply 0.276

###

- experimental.system: Torsin-1A-interacting protein 1 (Homo sapiens)
- procedure.text: LAP1 binders from COS7 cell lysate, primary screen, small-molecule microarray, 635/667 nm fluorescence (AID 1116)
- reported.conditions: COS7-hLAP1 lysate binding, 635 nm fluorescence, higher = more signal
true means recorded composite z-score is 0.2 or above; false means it is below 0.2.

-- ask Check if composite z-score >= 0.2 (inclusive). Item: C=CCC(OC(C)=O)[C@@H]1[C@@H](N(Cc2ccc(-c3cccc(C(F)(F)F)c3)o2)C(=O)Cc2ccc(OC)cc2)c2cc(OCCCO)ccc2N1C(=O)c1ccc2ccccc2n1 (some centres not stated)
-- reply false

-- ask Given the entry CC(C)[C@@H](C(=O)O)n1cc(-c2ccccc2)nn1 , answer whether its composite z-score meets or surpasses 0.2.
-- reply true

-- ask Identify whether the reported composite z-score of the following compound is 0.2 or greater: COCCCNC(=O)[C@@H]1c2ccccc2C(=O)N(Cc2cc(C(F)(F)F)cc(C(F)(F)F)c2)[C@H]1c1ccc(CO)cc1
-- reply true

-- ask Determine whether measured composite z-score meets or exceeds 0.2 for C=CCC(OC(C)=O)[C@@H]1[C@@H](N(Cc2cc3ccccc3o2)C(=O)c2ccc(-c3ccccc3)cc2)c2cc(OCCCO)ccc2N1C(=O)c1ccc2ccccc2n1 (some centres not stated)
-- reply true

-- ask Check if composite z-score >= 0.2 (inclusive). Item: CCOC(=O)C[C@H]1[C@H](OC(=O)c2ccc(-c3ccccc3)cc2)[C@@H](NC(=O)c2ccc3ccccc3c2)c2cc(OCCCO)ccc2N1C(=O)c1ccccc1
-- reply true

-- ask API: above_or_equal(metric=composite z-score, cutoff=0.2) for item CCCCC(O)C1C=CC2C(=O)NC(=O)C2N1Nc1ccccn1 (configuration not stated)
-- reply true

###

Assign composite z-score to each entry below.
- procedure.text: binders from COS7 lysate, DM2A8 probe, primary screen, torsin A project, cell lysate, small-molecule microarray, fluorescence 635/667 (AID 1065)
- reported.conditions: higher = more signal, COS7 lysate expressing mutant human TOR1A
Form field (numeric): enter value without unit.

-- ask Provide measured composite z-score value, entry: C=CCOC(=O)[C@H]1[C@@H]2C(=O)O[C@@H](c3ccccc3)[C@@H](c3ccccc3)N2[C@@H](c2ccc(OCCOC(=O)[C@H]3C[C@H]4C(=O)NCC(=O)N4[C@H]3c3ccc(O)cc3)cc2)[C@]12C(=O)Nc1ccc(I)cc12
-- reply 1.03

-- ask # return recorded composite z-score for input COc1ccc([Si](C)(C)[C@@H]2[C@@H](CC(=O)N(CCO)Cc3ccccc3)O[C@]3(C(=O)N(Cc4ccc(N5CCC5=O)cc4)c4ccccc43)[C@H]2C)cc1
-- reply 0.461

-- ask Consider the compound Cc1ccc(S[C@]2(C(=O)NCCCN(C)C)CC(=O)N(Cc3ccccc3Cl)[C@@H]2c2ccc(CO)cc2I)cc1 . State its measured composite z-score.
-- reply -0.42

-- ask Return reported composite z-score. Input compound: O=C1C2C=CC(C(O)C(c3ccccc3)c3ccccc3)N(Nc3ccccc3)C2C(=O)N1c1ccccc1 (centres undefined)
-- reply 0.0239

-- ask Return composite z-score for the following compound: COCCOC(=O)N1C(=O)[C@@]2(c3cc(C#Cc4ccc(OC)cc4)ccc31)[C@H](c1ccc(OCCO)cc1)N1[C@H](c3ccccc3)[C@H](c3ccccc3)OC(=O)[C@H]1[C@@H]2C(=O)N1CCCCCCC1
-- reply 0.351

-- ask Identify composite z-score associated with the compound Cc1ccc(S[C@]2(C(=O)NCCN3CCOCC3)CC(=O)N(C3CCCCC3)[C@@H]2c2ccc(CO)cc2I)cc1
-- reply 0.866

-- ask For COc1ccc([Si](C)(C)[C@H]2[C@H](CC(=O)N3Cc4ccccc4C[C@H]3CO)O[C@@]3(C(=O)N(Cc4cccc(N5C(=O)c6cccc7cccc5c67)c4)c4ccccc43)[C@@H]2C)cc1 , write its composite z-score.
-- reply 0.847

-- ask Check the records and state composite z-score for CC(C)C[C@@H]1NC(=O)C([C@@H](C)OCc2ccccc2)NC(=O)[C@@]23C(=O)N[C@@H](Cc4ccccc4)C2[C@H](C)[C@@]2(C)O[C@H]2C3/C=C/CC/C=C/CNC1=O (some centres undefined)
-- reply 0.924

-- ask Determine its reported composite z-score: COc1ccc([Si](C)(C)[C@H]2[C@H](CCn3cc([C@H](O)c4ccccc4)nn3)O[C@@]3(C(=O)N(C)c4c(Br)cc(C)cc43)[C@@H]2C)cc1
-- reply 0.48

-- ask Specify composite z-score for COc1ccc(CCNC(=O)[C@@H]2c3ccccc3C(=O)N(CC34CC5CC(CC(C5)C3)C4)[C@H]2c2ccc(CO)cc2)cc1 and stop.
-- reply 0.0668

-- ask Quickly give me recorded composite z-score for COC(=O)c1ccc([C@H](NC(=O)c2ccccc2)[C@]2(C)C[C@H]2C2CCCCC2)cc1
-- reply -0.678

-- ask Output measured composite z-score for this item: CC(C)CNC(=O)[C@@H]1c2ccccc2C(=O)N(Cc2ccccc2)[C@H]1c1ccc(CO)cc1
-- reply 0.886

-- ask Quick one: give measured composite z-score for CCOC(=O)C[C@H]1[C@H](OC(=O)c2ccc(-c3ccccc3)cc2)[C@@H](NC(=O)CC(C)C)c2cc(OCCCO)ccc2N1C(=O)Cc1ccc(OC)cc1
-- reply 0.445

-- ask Return reported composite z-score. Input compound: C=CCN1C(=O)[C@]2(O[C@H](CCO)[C@@H]([Si](C)(C)c3ccc(OC)cc3)[C@@H]2C)c2ccccc21
-- reply -0.313

-- ask Respond only with composite z-score recorded for CCCC[C@@H]1C[C@H]1[C@@H](NC(=O)Cc1ccccc1)c1ccc(Cl)cc1
-- reply 0.469

-- ask Please give the documented composite z-score of COCC(=C=CC[C@@H](O)c1cccc(OCCO)c1)C[C@@H](O)COCc1ccccc1
-- reply 1.35

-- ask Hello, please tell me recorded composite z-score for this one: [N-]=[N+]=NCc1ccccc1[C@H]1OC(c2ccc(OCCCO)cc2)=N[C@@]1(Cc1ccccc1)C(=O)N1CCOCC1
-- reply 0.768

-- ask Output composite z-score of C=CCC(OC(C)=O)[C@@H]1[C@@H](N(Cc2cccc3ccccc23)C(=O)c2ccc(C)cc2)c2cc(OCCCO)ccc2N1C(=O)c1ccc2ccccc2n1 (some centres undefined)
-- reply 0.552

-- ask Tell me its composite z-score given C=CC[C@]1(C(=O)OC)N=C(c2ccc(OCCCO)cc2)O[C@H]1c1ccccc1N=[N+]=[N-] as the entry.
-- reply 0.402

-- ask Specify reported composite z-score for the compound shown: CC(C)(C)OC(=O)CC[C@]1(C(=O)N2CCOCC2)N=C(c2ccc(OCCCO)cc2)O[C@H]1c1ccccc1CN=[N+]=[N-]
-- reply 1.03

-- ask Answer with reported composite z-score of CC1(C)OC[C@@]23C=C(Br)[C@@H](C[C@H]12)[C@@]1(CO1)C3=O
-- reply 0.374

-- ask Tell me composite z-score reported for C=CCC(OC(C)=O)[C@@H]1[C@@H](N(Cc2cc3ccccc3o2)C(=O)Cc2ccc(OC)cc2)c2cc(OCCCO)ccc2N1C(=O)Cc1ccc(OC)cc1 (some centres undefined)
-- reply 0.0357

-- ask Return composite z-score (reported value) for this compound: CCOC(=O)C[C@H]1[C@H](OC(=O)Cc2ccc3c(c2)OCO3)[C@@H](NC(=O)c2ccccc2)c2cc(OCCCO)ccc2N1C(=O)Cc1ccc(OC)cc1
-- reply 0.147

-- ask Report composite z-score, nothing else, for this compound: CO[C@H]1O[C@H](CO)[C@@H](OC(=O)Nc2ccc(C(F)(F)F)cc2)[C@H](OC(=O)Nc2ccccc2-c2ccccc2)[C@@H]1OC(=O)Nc1ccccc1-c1ccccc1
-- reply 1.65

All values here come from PubChem BioAssay.
